Hey, just so you know, these numbers are from ChEMBL document CHEMBL3091398.

# METHOD DESCRIPTION: Solubility of the compound at pH 2 after 24 hrs by shake-flask method
# Format: physicochemical
# PROTOCOL CONDITIONS: buffer, pH 2, 24 h
TEST READOUT: solubility

Request: Give the measured solubility of CC(C)N(c1ccc(Oc2ncccc2C(F)(F)F)cc1C(=O)O)C(=O)[C@H]1CC[C@H](C)CC1 .
Response: < 0.1 µg/mL

Request: Entry to check: CC(C)N(c1ccc(Oc2ccccc2C(F)(F)F)cc1C(=O)O)C(=O)[C@H]1CC[C@H](C)CC1
Response: < 0.1 µg/mL

----------
# METHOD DESCRIPTION: Half life in rat liver microsomes at 2 uM
# Format: ADME
TEST READOUT: half-life at 2 µM (h)
Write it as a number; the unit h goes unstated.

> print(dat)
                               input.smiles       test.readout  assay.result
1  CC(C)N(c1ccc(Oc2ncccc2C(F)(F)F)cc1C(=O)O)C(=O)[C@H]1CC[C@H](C)CC1  half-life at 2 µM             1

Request: Give the measured half-life at 2 µM of CC(C)N(c1ccc(Oc2ccccc2C(F)(F)F)cc1C(=O)O)C(=O)[C@H]1CC[C@H](C)CC1 .
Response: 1.3
